Quantity kind: solubility (µM)
Give bare numbers, in µM.

In: Which solubility is reported for this molecule? CCSSCC
Out: 2450

====

Quantity kind: ready biodegradability

[[record]]
compound = "Cc1ccc(N)cc1C"
quantity_kind = "ready biodegradability"
assay_result = "readily biodegradable"

[[record]]
compound = "C=C(C)C1CC=C(C)CC1 (stereo not given)"
quantity_kind = "ready biodegradability"
assay_result = "readily biodegradable"


====

Please go through the items and note down their melting point.
Give bare numbers, in °C.

Examples with answers:
[[record]]
molecule = "NCC[C@H](O)C(=O)N[C@@H]1C[C@H](N)[C@@H](O[C@H]2O[C@H](CN)[C@@H](O)[C@H](O)[C@H]2O)[C@H](O)[C@H]1O[C@H]1O[C@H](CO)[C@@H](O)[C@H](N)[C@H]1O"
unit_spec = "°C"
assay_result = 204

[[record]]
molecule = "CNC(=O)c1ccccc1"
unit_spec = "°C"
assay_result = 82

[[record]]
molecule = "O=C1C(Cl)=C(Nc2ccccc2)C(=O)c2ccccc21"
unit_spec = "°C"
assay_result = 215

[[record]]
molecule = "BrC(Br)=C(Br)Br"
unit_spec = "°C"
assay_result = 56.5

[[record]]
molecule = "Cn1c([N+](=O)[O-])cnc1COC(N)=O"
unit_spec = "°C"
assay_result = 168

[[record]]
molecule = "CCN(C)C"
unit_spec = "°C"
assay_result = -140

[[record]]
molecule = "CCN(CCO)c1ccc(N=Nc2ccc([N+](=O)[O-])cc2)cc1"
unit_spec = "°C"
assay_result = 161

[[record]]
molecule = "C=CC(=C)Cl"
unit_spec = "°C"
assay_result = -130

[[record]]
molecule = "CC(=O)O[C@@H](C(=O)O)c1ccccc1"
unit_spec = "°C"
assay_result = 97

[[record]]
molecule = "O=C(O)CCCCCC(=O)O"
unit_spec = "°C"
assay_result = 106


Fill in melting point for each of the 3 molecules listed.
1. CC(=O)c1ccc(O)c(O)c1O
2. CCSCc1ccccc1OC(=O)NC
3. CCCC#CCCC

Out:
1: 173; 2: 33.4; 3: -101
